- target-entity: MAPK14 (p38 alpha) (Homo sapiens)
- Construct: purchased Life Technologies PV 3304
- Sequence (Q16539 whole entry): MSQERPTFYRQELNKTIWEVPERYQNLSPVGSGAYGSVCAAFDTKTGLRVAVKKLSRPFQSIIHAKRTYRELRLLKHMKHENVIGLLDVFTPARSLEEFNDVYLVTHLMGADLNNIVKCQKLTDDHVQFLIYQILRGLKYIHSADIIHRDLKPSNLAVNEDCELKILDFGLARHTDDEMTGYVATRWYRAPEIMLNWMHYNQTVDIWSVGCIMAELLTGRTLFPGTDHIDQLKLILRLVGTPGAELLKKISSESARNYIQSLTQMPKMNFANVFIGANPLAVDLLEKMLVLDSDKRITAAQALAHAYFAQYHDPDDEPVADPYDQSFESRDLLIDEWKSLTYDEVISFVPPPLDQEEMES
- test-summary: Z'-LYTE kinase selectivity assay MAPK14
- Assay type: biochemical
# key: entry, value: inhibition at 1 µM

{"compound-smiles": "C[C@@H]1Cc2nn(C)c(-c3ccccc3)c2-c2nc(Nc3ccn(CCN4CCN(CC(C)(C)O)CC4)n3)ncc21", "inhibition at 1 µM / %": 2}
{"compound-smiles": "C[C@@H]1Cc2nn(C)c(-c3ccccc3)c2-c2nc(Nc3ccn(CCN4CCN(C)CC4)n3)ncc21", "inhibition at 1 µM / %": -5}
{"compound-smiles": "COCCN1CCN(CCn2ccc(Nc3ncc4c(n3)-c3c(nn(C)c3-c3ccccc3)C[C@H]4C)n2)CC1", "inhibition at 1 µM / %": 1}
{"compound-smiles": "C[C@@H]1Cc2nn(C)c(-c3ccccc3)c2-c2nc(Nc3ccn(CCN4CCOCC4)n3)ncc21", "inhibition at 1 µM / %": 7}
